experiment: folding enthalpy; higher = less favourable; fluorescence melt of hairpins on a sequencing array, two-state fit; conditions: sodium 0.088 M
So I've got a bunch of sequences here, and I need their folding enthalpy values.
Kindly answer with a numeric value in kcal/mol, unit omitted.

Task: Reported folding enthalpy for GCGAGCGAAAGCTCCCGC ((((((....)))..))) : what is it?
Output: -11.6

Task: Reported folding enthalpy for GATCTGTTGTCAGATC ((((((....)))))) : what is it?
Output: -37.1

Task: Reported folding enthalpy for GGATTGGCGAAAGCCTCC (((..(((....)))))) : what is it?
Output: -10.5

Task: Reported folding enthalpy for GAGAATGCGAAAGCACTC (((..(((....)))))) : what is it?
Output: -9.82

Task: Reported folding enthalpy for GTTATCGGAAACGATAAC (((((((....))))))) : what is it?
Output: -46.2

Task: Reported folding enthalpy for GCTCTTGGAAACAAGGGC ((.((((....)))).)) : what is it?
Output: -38.5

====

assay: folding enthalpy; higher = less favourable; fluorescence melt of hairpins on a sequencing array, two-state fit; conditions: sodium 0.088 M
Think of -20 kcal/mol as a floor: if folding enthalpy stands on it or above, it is T; beneath it, F.

Task: Tell me whether folding enthalpy is at least -20 kcal/mol here: GTTGCCGAAAGGCGAAC ((((((....))).)))
Output: T

Task: Tell me whether folding enthalpy is at least -20 kcal/mol here: GTAGGCGAAAGCCCCTAC ((((((....)))..)))
Output: T

Task: Tell me whether folding enthalpy is at least -20 kcal/mol here: GCGGAATTCCGC ((((....))))
Output: F

Task: Tell me whether folding enthalpy is at least -20 kcal/mol here: GACGATGAAAATCGTC ((((((....))))))
Output: F

Task: Tell me whether folding enthalpy is at least -20 kcal/mol here: GATCAGACCACTGATC ((((((....))))))
Output: F

Task: Tell me whether folding enthalpy is at least -20 kcal/mol here: ACGATGAAAATCGT (((((....)))))
Output: T

Task: Tell me whether folding enthalpy is at least -20 kcal/mol here: GCAAGTGGAAACGCTTGC (((((.(....).)))))
Output: F

Task: Tell me whether folding enthalpy is at least -20 kcal/mol here: GATCTGGATGCAGATC ((((((....))))))
Output: F

Task: Tell me whether folding enthalpy is at least -20 kcal/mol here: GCATGTGGAAACACGTGC (((.(((....))).)))
Output: F

Task: Tell me whether folding enthalpy is at least -20 kcal/mol here: GCCCTAGGAAACTAAGGC (((.(((....))).)))
Output: F

Task: Tell me whether folding enthalpy is at least -20 kcal/mol here: GATCAAACATTGATC ((((((...))))))
Output: F

Task: Tell me whether folding enthalpy is at least -20 kcal/mol here: GATCACTGACGTGATC ((((((....))))))
Output: F

Task: Tell me whether folding enthalpy is at least -20 kcal/mol here: GCAATTCCGAAAGGATGC (((..(((....))))))
Output: F

Task: Tell me whether folding enthalpy is at least -20 kcal/mol here: GCTAACCCGAAAGGGAGC (((..(((....))))))
Output: T

Task: Tell me whether folding enthalpy is at least -20 kcal/mol here: AATGTGAAAACATT (((((....)))))
Output: T

Task: Tell me whether folding enthalpy is at least -20 kcal/mol here: GCGGAAACCGC ((((...))))
Output: F

Task: Tell me whether folding enthalpy is at least -20 kcal/mol here: GCACGCCGAAAGGCCTGC (((.(((....))).)))
Output: F

Task: Tell me whether folding enthalpy is at least -20 kcal/mol here: GTAGCCCCGAAAGGGTAC (((..(((....))))))
Output: T

Task: Tell me whether folding enthalpy is at least -20 kcal/mol here: GATCTTAGCAAGATC ((((((...))))))
Output: F

Task: Tell me whether folding enthalpy is at least -20 kcal/mol here: TTCTGGAAACAGAA (((((....)))))
Output: T

Task: Tell me whether folding enthalpy is at least -20 kcal/mol here: GTGACATCGAAAGATCAC (((..(((....))))))
Output: T

Task: Tell me whether folding enthalpy is at least -20 kcal/mol here: GTCTTACGAAAGTACGAC (((.(((....))).)))
Output: F

Task: Tell me whether folding enthalpy is at least -20 kcal/mol here: GCTACCGAAAGGTATAGC ((((((....)))..)))
Output: T

Task: Tell me whether folding enthalpy is at least -20 kcal/mol here: GACTTGCGAAAGCACGTC (((.(((....))).)))
Output: F
